target: histone deacetylase (E. tenella oocyst S100 lysate); assay: Competitive binding assay with 3H-N-desmethoxyapicidin, E. tenella S100 lysate; details: displacement of 3H-N-desmethoxyapicidin, E. tenella S100
recordedMetric: IC50

Consider CC(/C=C/C(=O)O)=C\[C@@H](C)C(=O)c1ccc(N(C)C)cc1 [trichostatic acid] . Its measured IC50 is > 1000 nM
